Read-out record for Ubiquitin carboxyl-terminal hydrolase 7 (Homo sapiens, UniProt Q93009): pIC50
Keep in mind that pIC50 stands for -log10 of concentration in molar terms.

Oc1ccc(-c2nc(C3CCNCC3)co2)cc1 :: 4.07
CCc1c(-c2ccc(O)cc2)cnc(N)c1-c1cccc(C#N)c1 :: 5.28
Cc1c(-c2ccc(O)cc2)cnc(N)c1-c1ccc(O)cc1 :: 5.12
CN1CCC(c2noc(-c3ccc(O)cc3)n2)CC1 :: 4.10

Data request: Recorded pIC50 of Oc1ccc(-c2nc(C3CCNC3)no2)cc1 (stereo unspecified) , please.
Data returned: 3.88

Data request: Moving on to Nc1ncc(-c2ccccc2Cl)cc1-c1ccc(O)cc1
Data returned: 4.48

* * *

Test system UniProt:Q93009, pIC50 listed for each of the compounds.
Keep it numeric: pIC50 is minus log10 of the concentration in mol/L.

Observe how each entry below is paired with its result.
CCc1c(-c2ccc(O)cc2)cnc(N)c1-c1ccc2[nH]ncc2c1 :: 6.21
CN1CCC(c2noc(-c3ccc(O)cc3)n2)C1 (stereo unspecified) :: 3.88
CCc1c(-c2ccc(O)cc2)cnc(N)c1-c1ccc(O)cc1 :: 5.60
Oc1ccc(-c2ncc(C3CCNCC3)o2)c(F)c1 :: 4.74

Data request: Hello, I am looking for reported pIC50 with UniProt:Q93009 for CCc1c(-c2ccc(O)cc2)cnc(N)c1-c1ccccc1 . Could you help?
Data returned: 4.65

* * *

biological target: Ubiquitin carboxyl-terminal hydrolase 7 (Homo sapiens, UniProt Q93009); assay: Inhibition of USP7 in human SJSA cells assessed as increase in ubiquitinated MDM2 level after 16 hrs in presence of MG132 by MSD assay
Sequence (Q93009 whole entry, the tested form may be a part): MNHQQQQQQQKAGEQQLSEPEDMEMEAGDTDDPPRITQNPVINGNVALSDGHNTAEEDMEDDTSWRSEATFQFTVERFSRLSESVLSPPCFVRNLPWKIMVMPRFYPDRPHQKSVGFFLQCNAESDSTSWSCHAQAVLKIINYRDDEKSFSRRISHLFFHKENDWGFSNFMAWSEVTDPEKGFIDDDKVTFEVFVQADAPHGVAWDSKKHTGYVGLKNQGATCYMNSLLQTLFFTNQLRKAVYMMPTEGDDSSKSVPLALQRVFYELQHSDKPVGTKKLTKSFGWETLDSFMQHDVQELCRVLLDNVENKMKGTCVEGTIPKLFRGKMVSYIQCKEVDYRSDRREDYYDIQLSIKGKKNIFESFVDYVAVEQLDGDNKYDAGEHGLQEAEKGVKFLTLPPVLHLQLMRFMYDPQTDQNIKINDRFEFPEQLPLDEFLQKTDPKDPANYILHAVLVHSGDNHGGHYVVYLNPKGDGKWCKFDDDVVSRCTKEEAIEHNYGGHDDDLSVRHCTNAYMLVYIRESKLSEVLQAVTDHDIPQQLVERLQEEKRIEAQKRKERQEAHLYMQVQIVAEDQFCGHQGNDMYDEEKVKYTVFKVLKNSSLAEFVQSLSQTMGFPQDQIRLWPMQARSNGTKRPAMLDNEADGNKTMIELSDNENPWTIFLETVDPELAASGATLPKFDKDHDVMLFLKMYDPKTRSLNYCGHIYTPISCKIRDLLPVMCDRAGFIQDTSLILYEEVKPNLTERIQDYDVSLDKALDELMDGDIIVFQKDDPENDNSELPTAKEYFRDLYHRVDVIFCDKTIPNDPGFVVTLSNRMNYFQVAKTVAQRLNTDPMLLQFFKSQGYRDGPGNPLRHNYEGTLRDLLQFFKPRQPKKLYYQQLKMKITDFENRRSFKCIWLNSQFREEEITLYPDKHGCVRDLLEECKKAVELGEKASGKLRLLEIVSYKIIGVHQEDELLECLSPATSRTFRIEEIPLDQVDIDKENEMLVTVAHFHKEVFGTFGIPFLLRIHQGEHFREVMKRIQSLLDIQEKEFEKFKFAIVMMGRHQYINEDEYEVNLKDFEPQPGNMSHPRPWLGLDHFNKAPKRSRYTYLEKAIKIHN
Each record here notes measured EC50.
# value in µM; strip the unit string

Recorded EC50, per entry:
Nc1nc(N)c(-c2ccc(O)cc2)cc1-c1ccc(O)cc1 :: 36.5
CCc1c(-c2ccc3[nH]ncc3c2)cnc(N)c1-c1ccc(O)cc1 :: 0.3
CCc1c(-c2ccc(C(=O)NC)nc2)cnc(N)c1-c1ccc(O)cc1 :: 2.58

Data request: Item under review: CCc1c(-c2ccc(O)cc2)cnc(N)c1-c1cccc(C#N)c1 . Reported EC50?
Data returned: 37.5

* * *

molecular target: Ubiquitin carboxyl-terminal hydrolase 7 (Homo sapiens); assay: Binding affinity to human His-tagged and [15N-13C-2H], delta1[13CH3]-Ile, [13CH3]-Leu/Val and [13CH3]-Met-labeled USP7-catalytic domain (208 to 554 residues) expressed in Escherichia coli Rosetta 2 (DE3) cells by 2D[1H-15N]-based TROSY spectrum NMR analysis
pKd: −log10 of the molar value.
property name: pKd

Oc1ccc(-c2nc(C3CCNCC3)no2)cc1 :: 4.57 to 4.92

# context switch: different compound, same pKd
Data request: What measured pKd goes with CN1CCC(c2noc(-c3ccc(O)cc3)n2)CC1 ?
Data returned: 4.57 to 4.92

Where do the numbers come from? From ChEMBL document CHEMBL4028910.
